target: RAC-gamma serine/threonine-protein kinase (Homo sapiens); test: Inhibitory concentration against Akt3 kinase
Sequence (Q9Y243 whole entry, looked up): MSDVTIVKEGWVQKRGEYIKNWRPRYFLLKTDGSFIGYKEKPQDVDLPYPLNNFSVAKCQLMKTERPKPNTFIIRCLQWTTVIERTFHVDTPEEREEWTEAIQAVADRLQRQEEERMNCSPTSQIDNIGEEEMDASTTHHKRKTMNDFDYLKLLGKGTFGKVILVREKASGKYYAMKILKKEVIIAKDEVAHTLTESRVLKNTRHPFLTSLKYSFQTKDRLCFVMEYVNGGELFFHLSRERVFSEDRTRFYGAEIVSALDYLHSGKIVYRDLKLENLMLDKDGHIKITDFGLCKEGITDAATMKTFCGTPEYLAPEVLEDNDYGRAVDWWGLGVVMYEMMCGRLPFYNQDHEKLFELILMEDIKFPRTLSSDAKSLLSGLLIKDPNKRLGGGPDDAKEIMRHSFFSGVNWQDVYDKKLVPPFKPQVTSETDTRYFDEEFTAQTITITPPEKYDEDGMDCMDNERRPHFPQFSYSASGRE
MEASURED ENDPOINT: IC50

[
  {
    "SMILES DATA": "Fc1ccc2[nH]c(C3CCN(Cc4ccc(-c5ncc(-c6nn[nH]n6)cc5-c5ccccc5)cc4)CC3)nc2c1",
    "IC50": "> 50 µM"
  },
  {
    "SMILES DATA": "Cc1ccc2[nH]c(C3CCN(Cc4ccc(-c5ncc(-c6nn[nH]n6)cc5-c5ccccc5)cc4)CC3)nc2c1",
    "IC50": "> 50 µM"
  },
  {
    "SMILES DATA": "Oc1nc2ccccc2n1C1CCN(Cc2ccc(-c3cc4ccccc4nc3-c3ccccc3)cc2)CC1",
    "IC50": "> 50 µM"
  }
]

Ask: Entry under review: Oc1nc2ccccc2n1C1CCN(Cc2ccc(-c3nc4ccccc4cc3-c3ccccc3)cc2)CC1 . Reported IC50?
Reply: > 50 µM

Ask: Name the recorded IC50 for Cc1nc2ccccc2n1C1CCN(Cc2ccc(-c3ncc(C#N)cc3-c3ccccc3)cc2)CC1 .
Reply: > 50 µM

Ask: Could you tell me which IC50 is on file for Cc1nc2ccccc2n1C1CCN(Cc2ccc(-c3ncc(-c4nn[nH]n4)cc3-c3ccccc3)cc2)CC1 ?
Reply: > 50 µM

Ask: Dear colleague, I am looking for the recorded IC50 of the following compound: N#Cc1cnc(-c2ccc(CN3CCC(n4c(=O)[nH]c5ccccc54)CC3)cc2)c(-c2ccccc2)c1
Reply: > 50 µM

Ask: Return reported IC50; argument: O=c1[nH]c2ccccc2n1C1CCN(Cc2ccc(-c3ncc(-c4nnn[nH]4)cc3-c3ccccc3)cc2)CC1
Reply: > 50 µM

---

experiment: Inhibitory concentration against Akt2 kinase; parameters: species or system Homo sapiens
pIC50 reference
For clarity, pIC50 is expressed as the negative log10 of concentration in mol/L.

Study these solved cases before continuing.
[
  {
    "SMILES DATA": "N#Cc1cnc(-c2ccc(CN3CCC(n4cnc5ccccc54)CC3)cc2)c(-c2ccccc2)c1",
    "VALUE OBSERVED": 4.89
  },
  {
    "SMILES DATA": "N#Cc1cnc(-c2ccc(CN3CCC(c4nc5ccccc5[nH]4)CC3)cc2)c(-c2ccccc2)c1",
    "VALUE OBSERVED": 5.06
  },
  {
    "SMILES DATA": "c1ccc(-c2cc(-c3nn[nH]n3)cnc2-c2ccc(CN3CCC(c4nc5ccccc5[nH]4)CC3)cc2)cc1",
    "VALUE OBSERVED": 5.82
  },
  {
    "SMILES DATA": "Cc1ccc2[nH]c(C3CCN(Cc4ccc(-c5ncc(C#N)cc5-c5ccccc5)cc4)CC3)nc2c1",
    "VALUE OBSERVED": 4.94
  }
]

Ask: I'd like to know its pIC50. The molecule in question is Oc1nc2ccccc2n1C1CCN(Cc2ccc(-c3nc4ccccc4cc3-c3ccccc3)cc2)CC1
Reply: 5.92

---

target: RAC-gamma serine/threonine-protein kinase (Homo sapiens)
pIC50: −log10 of the molar value.
pIC50 values for the molecules below.

[
  {
    "SMILES DATA": "N#Cc1cnc(-c2ccc(CN3CCC(n4cnc5ccccc54)CC3)cc2)c(-c2ccccc2)c1",
    "pIC50": "< 4.30"
  },
  {
    "SMILES DATA": "c1ccc(-c2cc(-c3nn[nH]n3)cnc2-c2ccc(CN3CCC(n4cnc5ccccc54)CC3)cc2)cc1",
    "pIC50": "< 4.30"
  },
  {
    "SMILES DATA": "N#Cc1cnc(-c2ccc(CN3CCC(c4nc5cc(F)ccc5[nH]4)CC3)cc2)c(-c2ccccc2)c1",
    "pIC50": "< 4.30"
  }
]

Turning now to a further record.
Ask: What measured pIC50 is associated with N#Cc1cnc(-c2ccc(CN3CCC(c4nc5ccccc5[nH]4)CC3)cc2)c(-c2ccccc2)c1 on RAC-gamma serine/threonine-protein kinase (Homo sapiens)?
Reply: < 4.30
